Cited source: patent US20200347144A1

Target: T1, monkey 4-1BB on CHOK1 cells (monkey)
T1 construct: whole, on cells; also called CHOK1-c4-1BB
Test: FACS, CHOK1-c4-1BB cells; Ab 0.016 ug/ml
RESULT TYPE: average fluorescence intensity (MFI)

{"BINDER": "52F4G2 (antibody, V domains shown) VH: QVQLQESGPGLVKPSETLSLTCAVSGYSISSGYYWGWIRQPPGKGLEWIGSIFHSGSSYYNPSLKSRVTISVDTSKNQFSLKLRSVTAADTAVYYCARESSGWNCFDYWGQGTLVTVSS VL: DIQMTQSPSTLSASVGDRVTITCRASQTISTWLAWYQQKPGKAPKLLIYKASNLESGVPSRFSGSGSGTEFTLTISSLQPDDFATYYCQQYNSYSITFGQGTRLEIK", "EXPERIMENTAL RESULT": 41.2}
{"BINDER": "118F3A2 (antibody, V domains shown) VH: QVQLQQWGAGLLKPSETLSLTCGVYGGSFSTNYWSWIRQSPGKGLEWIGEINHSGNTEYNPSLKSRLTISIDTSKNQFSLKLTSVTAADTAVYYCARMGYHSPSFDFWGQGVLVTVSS VL: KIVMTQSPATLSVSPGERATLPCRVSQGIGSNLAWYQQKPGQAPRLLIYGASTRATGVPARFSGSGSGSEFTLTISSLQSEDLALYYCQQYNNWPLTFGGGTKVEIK", "EXPERIMENTAL RESULT": 41.2}
{"BINDER": "170D7F2 (antibody, V domains shown) VH: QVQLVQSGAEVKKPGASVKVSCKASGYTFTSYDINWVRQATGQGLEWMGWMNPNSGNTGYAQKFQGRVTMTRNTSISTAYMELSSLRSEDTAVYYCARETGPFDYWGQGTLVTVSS VL: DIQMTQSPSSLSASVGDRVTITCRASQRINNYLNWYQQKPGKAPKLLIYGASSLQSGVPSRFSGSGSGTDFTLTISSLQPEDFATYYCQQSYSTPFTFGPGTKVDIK", "EXPERIMENTAL RESULT": 25.9}
{"BINDER": "172E3E3 (antibody, V domains shown) VH: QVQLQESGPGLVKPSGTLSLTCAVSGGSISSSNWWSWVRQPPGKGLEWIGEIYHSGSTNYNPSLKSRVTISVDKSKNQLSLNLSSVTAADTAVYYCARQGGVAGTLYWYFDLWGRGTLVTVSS VL: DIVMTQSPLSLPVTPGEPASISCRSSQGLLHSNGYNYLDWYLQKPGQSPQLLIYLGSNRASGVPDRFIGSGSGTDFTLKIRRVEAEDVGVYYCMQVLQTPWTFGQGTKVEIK", "EXPERIMENTAL RESULT": 16.7}
{"BINDER": "119B6G5 (antibody, V domains shown) VH: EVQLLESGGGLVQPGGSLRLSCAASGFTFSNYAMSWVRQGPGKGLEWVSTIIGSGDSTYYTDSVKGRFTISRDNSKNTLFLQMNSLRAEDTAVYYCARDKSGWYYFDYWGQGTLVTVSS VL: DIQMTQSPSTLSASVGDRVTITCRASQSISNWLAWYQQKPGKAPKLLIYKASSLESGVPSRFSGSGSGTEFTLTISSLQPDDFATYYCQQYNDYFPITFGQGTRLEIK", "EXPERIMENTAL RESULT": 77.9}
{"BINDER": "11H10C9 (antibody, V domains shown) VH: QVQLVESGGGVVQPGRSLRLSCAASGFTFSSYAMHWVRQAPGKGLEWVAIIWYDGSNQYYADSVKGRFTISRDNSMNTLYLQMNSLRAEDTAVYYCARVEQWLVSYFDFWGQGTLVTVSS VL: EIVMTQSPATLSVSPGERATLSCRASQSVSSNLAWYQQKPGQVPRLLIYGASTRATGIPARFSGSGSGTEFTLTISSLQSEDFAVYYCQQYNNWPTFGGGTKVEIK", "EXPERIMENTAL RESULT": 24.7}
{"BINDER": "113F6C6 (antibody, V domains shown, also called 4-1BB fully human antibody 113F6C6; 113F6F6) VH: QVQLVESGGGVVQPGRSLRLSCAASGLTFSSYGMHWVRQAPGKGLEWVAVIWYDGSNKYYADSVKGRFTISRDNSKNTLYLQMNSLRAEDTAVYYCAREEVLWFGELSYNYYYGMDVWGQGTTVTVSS VL: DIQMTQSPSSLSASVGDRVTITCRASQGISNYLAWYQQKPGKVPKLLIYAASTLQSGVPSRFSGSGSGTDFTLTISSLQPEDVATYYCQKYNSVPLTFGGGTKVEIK", "EXPERIMENTAL RESULT": 51.5}
{"BINDER": "57B3D10 (antibody, V domains shown, also called 4-1BB fully human antibody 57B3D10) VH: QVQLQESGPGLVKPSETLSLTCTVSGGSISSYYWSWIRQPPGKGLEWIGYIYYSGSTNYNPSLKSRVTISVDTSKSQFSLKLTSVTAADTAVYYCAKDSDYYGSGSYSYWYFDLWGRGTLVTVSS VL: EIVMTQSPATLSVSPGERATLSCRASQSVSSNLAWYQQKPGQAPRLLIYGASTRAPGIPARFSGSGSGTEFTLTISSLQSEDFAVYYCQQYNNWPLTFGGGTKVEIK", "EXPERIMENTAL RESULT": 63.5}
{"BINDER": "100F3C4 (antibody, V domains shown) VH: QVQLQESGPGLVKPSGTLSLTCAVSGGSISSSNWWSWVRQPPGKGLEWIGEIYHSGSTNYNPSLKSRVTMSVDKSKNQFSLELRSVTAADTAVYYCARDAVDAYYYYYGMDVWGQGTTVTVSS VL: DIQLTQSPSFLSASVGDRVTITCRASQGISSYLAWYQQKPGKAPKLLIYAASTLQSGVPSRFSGSGSGTEFTLTISSLQPEDFATYYCQHLNSYPFTFGPGTKVDLK", "EXPERIMENTAL RESULT": 15.2}
{"BINDER": "15G10D4 (antibody, V domains shown) VH: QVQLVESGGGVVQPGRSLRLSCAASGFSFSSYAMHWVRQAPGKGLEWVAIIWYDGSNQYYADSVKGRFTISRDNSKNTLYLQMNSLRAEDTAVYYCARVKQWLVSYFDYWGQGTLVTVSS VL: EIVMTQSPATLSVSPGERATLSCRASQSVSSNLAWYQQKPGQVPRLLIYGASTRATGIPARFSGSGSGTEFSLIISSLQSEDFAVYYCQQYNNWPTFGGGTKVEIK", "EXPERIMENTAL RESULT": 37.3}
